# system-tested: UniProt:Q96RI1
# Sequence (Q96RI1 262-486 limits assumed): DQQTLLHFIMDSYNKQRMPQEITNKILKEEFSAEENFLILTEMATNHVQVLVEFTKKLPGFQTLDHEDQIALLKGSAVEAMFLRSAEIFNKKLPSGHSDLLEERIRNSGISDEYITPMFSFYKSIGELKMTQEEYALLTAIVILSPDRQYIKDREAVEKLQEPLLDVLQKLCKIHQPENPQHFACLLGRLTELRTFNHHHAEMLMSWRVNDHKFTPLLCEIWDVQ
# assay-method-text: transient human FXR/Gal4-luciferase reporter assay
# reported-conditions: Gal4-hFXR LBD fusion, luciferase reporter in HEK293 cells; response relative to 8 μM GW-4064
EC50 values by entry
A number alone suffices; assume nM.

Solved entries:
{"compound": "Cn1nc(C2CC2)cc1C12CCC(CN(C(=O)C3CCOCC3)c3cccc(-c4cc(C5CC5)on4)c3)(CC1)CC2", "assay-metric": "EC50", "assay-value": 227}
{"compound": "O=C(C1CCOCC1)N(CC12CCC(c3nc(CC4CC4)no3)(CC1)CC2)c1cccc(-c2nc(C3CC3)no2)c1", "assay-metric": "EC50", "assay-value": 278}
{"compound": "CCc1noc(-c2cccc(N(CC34CCC(c5nc(C6CC6)no5)(CC3)CC4)C(=O)C3CCC(F)(F)CC3)c2)n1", "assay-metric": "EC50", "assay-value": 799}
{"compound": "CCOc1ccc(-c2cccc(N(CC34CCC(c5nc(C(C)(C)C)no5)(CC3)CC4)C(=O)C3CCC(OC)CC3)c2)cc1 (single isomer, unassigned) [Example 145]", "assay-metric": "EC50", "assay-value": 303}

Prompt: Which EC50 is listed for CC(F)(F)c1nc(C23CCC(CN(C(=O)C4CCC(F)(F)CC4)c4cccc(-c5nc(C6CC6)no5)c4)(CC2)CC3)no1 ?
Completion: 142

Prompt: And then COc1cc(-c2cccc(N(CC34CC(c5nc(C6CC6)no5)(C3)C4)C(=O)C3CCCCC3)c2)ccn1 , what is it?
Completion: 3430

Prompt: One more compound: CC(F)(F)c1nc(C23CCC(CN(C(=O)C4CCC(O)(C(F)(F)F)CC4)c4cccc(-c5cc(C6CC6)on5)c4)(CC2)CC3)no1 (centres unmarked) [Example 158]
Completion: 195

Prompt: Quick one: COc1cc(-c2cccc(N(CC34CCC(c5nc(C)no5)(CC3)CC4)C(=O)C3CCCCC3)c2)no1
Completion: 660
